Provenance of the data: the supplement of paper PMC7877785

assay: self-splicing fitness, log relative to wild type (ln ratio); higher = more splicing; Tetrahymena group I intron in knt gene, E. coli kanamycin selection, DiMSum; sequences stand for … in CUCUCU…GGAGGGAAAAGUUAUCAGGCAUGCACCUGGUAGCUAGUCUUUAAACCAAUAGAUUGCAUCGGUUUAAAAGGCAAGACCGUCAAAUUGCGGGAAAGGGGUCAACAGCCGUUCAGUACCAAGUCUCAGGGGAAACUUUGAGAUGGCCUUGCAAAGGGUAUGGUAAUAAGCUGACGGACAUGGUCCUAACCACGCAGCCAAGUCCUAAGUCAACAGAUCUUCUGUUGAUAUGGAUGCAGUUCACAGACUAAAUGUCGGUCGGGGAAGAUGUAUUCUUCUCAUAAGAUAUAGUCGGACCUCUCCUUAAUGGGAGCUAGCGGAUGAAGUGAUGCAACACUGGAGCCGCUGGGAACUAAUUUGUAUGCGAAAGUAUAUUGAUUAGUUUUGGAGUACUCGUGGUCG; settings: 30 °C;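 also: selection with 25 µg/mL kanamycin versus none on LB agar overnight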
Form field: self-splicing fitness (ln) (one value per entry).
measuredMetric: self-splicing fitness (ln)

INSERT INTO results (primarysequence, measuredmetric, reportedresult) VALUES
  ('CGAGAGCAAUAUUACGCUGC', 'self-splicing fitness (ln)', -2.93),
  ('CUCGAGCAAUAUUACGUGAG', 'self-splicing fitness (ln)', -2.41),
  ('CAAAAGCAAUAUUACGGCUU', 'self-splicing fitness (ln)', -3.44),
  ('GGUGAGCAAUAUUACGCGAC', 'self-splicing fitness (ln)', -3.49),
  ('CUCAAGCAAUAUUACGCAAU', 'self-splicing fitness (ln)', -3.56),
  ('UCCGAGCAAUAUUACGAGAA', 'self-splicing fitness (ln)', -1.91),
  ('GCGGAGCAAUAUUACGGUAU', 'self-splicing fitness (ln)', -3.38),
  ('CAAAAGCAAUAUUACGACAU', 'self-splicing fitness (ln)', -2.35),
  ('GUUUAGCAAUAUUACGACAG', 'self-splicing fitness (ln)', -3.68),
  ('GAAUAGCAAUAUUACGCGCA', 'self-splicing fitness (ln)', -0.334),
  ('GUUAAGCAAUAUUACGGAGU', 'self-splicing fitness (ln)', -3.71),
  ('CGUCAGCAAUAUUACGACAG', 'self-splicing fitness (ln)', -0.576);

----------
assay: self-splicing fitness, log relative to wild type (ln ratio); higher = more splicing; Tetrahymena group I intron in knt gene, E. coli kanamycin selection, DiMSum; sequences stand for … in CUCUCU…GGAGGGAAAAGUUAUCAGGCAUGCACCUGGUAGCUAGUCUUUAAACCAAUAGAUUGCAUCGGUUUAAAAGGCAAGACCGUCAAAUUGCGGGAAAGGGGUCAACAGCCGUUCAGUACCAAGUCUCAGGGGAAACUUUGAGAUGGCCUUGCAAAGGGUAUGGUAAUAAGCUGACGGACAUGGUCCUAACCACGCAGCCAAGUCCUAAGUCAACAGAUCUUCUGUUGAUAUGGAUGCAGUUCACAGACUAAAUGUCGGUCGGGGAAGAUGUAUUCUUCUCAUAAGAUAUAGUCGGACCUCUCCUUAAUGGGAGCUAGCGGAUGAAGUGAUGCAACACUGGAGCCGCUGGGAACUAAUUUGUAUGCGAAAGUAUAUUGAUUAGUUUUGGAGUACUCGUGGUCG; conditions: 37 °C
The label depends only on self-splicing fitness (ln): 1 if it is at least -0.8, -1 if it is smaller.

INSERT INTO assay_data (primarysequence, label) VALUES
  ('CGGAAGCAAUAUUACGAGAU', -1),
  ('AUGCAGCAAUAUUACGCCCA', 1),
  ('UGGGAGCAAUAUUACGGGCC', -1),
  ('CGCGAGCAAUAUUACGUGCU', -1),
  ('CUUUAGCAAUAUUACGUGUG', 1),
  ('CAAGAGCAAUAUUACGAAUC', -1),
  ('ACCCAGCAAUAUUACGUAGC', 1),
  ('ACAGAGCAAUAUUACGACGC', 1),
  ('GAUAAGCAAUAUUACGAGCC', -1),
  ('AUAUAGCAAUAUUACGGCUA', 1),
  ('CAUCAGCAAUAUUACGGUUU', -1),
  ('UUCCAGCAAUAUUACGUUCA', 1),
  ('CCGCAGCAAUAUUACGCUAU', -1),
  ('GUGGAGCAAUAUUACGCGUU', -1),
  ('GGAUAGCAAUAUUACGGUUG', -1),
  ('GGGAAGCAAUAUUACGGUAA', 1),
  ('CAGCAGCAAUAUUACGAGUG', 1),
  ('GGGCAGCAAUAUUACGUGAG', 1),
  ('AGGUAGCAAUAUUACGAGUA', -1),
  ('AGAUAGCAAUAUUACGGGGA', -1),
  ('CUUAAGCAAUAUUACGCAGG', -1),
  ('UUCCAGCAAUAUUACGCCAA', 1),
  ('UUCCAGCAAUAUUACGUAGG', -1),
  ('CGGAAGCAAUAUUACGUGAG', 1),
  ('GAUUAGCAAUAUUACGUUGU', -1),
  ('GGUCAGCAAUAUUACGUUCC', 1),
  ('CACGAGCAAUAUUACGAAAA', -1),
  ('UUUCAGCAAUAUUACGAUGC', -1),
  ('GAAAAGCAAUAUUACGCAUG', 1),
  ('GGGCAGCAAUAUUACGACUC', 1),
  ('UGGUAGCAAUAUUACGUCGU', -1),
  ('CUCGAGCAAUAUUACGUCUG', -1),
  ('CUGUAGCAAUAUUACGCUAU', 1),
  ('CGGUAGCAAUAUUACGCGUG', -1),
  ('AAGGAGCAAUAUUACGCAUC', -1),
  ('CAGGAGCAAUAUUACGUUAA', -1),
  ('UUACAGCAAUAUUACGCCCU', 1),
  ('CUGAAGCAAUAUUACGACCG', 1),
  ('AAACAGCAAUAUUACGCUGC', -1),
  ('GAUUAGCAAUAUUACGACAG', -1),
  ('UCUCAGCAAUAUUACGAGUC', -1),
  ('AGGAAGCAAUAUUACGUUAC', -1);

----------
Entries and their self-splicing fitness (ln) values follow.
experiment: self-splicing fitness, log relative to wild type (ln ratio); higher = more splicing; Tetrahymena group I intron in knt gene, E. coli kanamycin selection, DiMSum; sequences stand for … in CUCUCU…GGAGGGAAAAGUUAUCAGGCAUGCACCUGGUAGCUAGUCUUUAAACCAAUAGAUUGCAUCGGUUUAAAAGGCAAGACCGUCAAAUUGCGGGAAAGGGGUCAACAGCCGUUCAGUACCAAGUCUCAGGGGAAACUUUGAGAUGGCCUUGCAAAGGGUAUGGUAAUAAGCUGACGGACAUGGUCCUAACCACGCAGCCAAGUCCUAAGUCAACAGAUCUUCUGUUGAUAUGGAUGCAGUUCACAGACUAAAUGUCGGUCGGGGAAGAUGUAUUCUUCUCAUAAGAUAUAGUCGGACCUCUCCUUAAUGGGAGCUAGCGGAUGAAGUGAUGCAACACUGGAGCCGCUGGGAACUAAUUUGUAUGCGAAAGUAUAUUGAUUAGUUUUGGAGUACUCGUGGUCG; settings: 37 °C
measuredMetric: self-splicing fitness (ln)

INSERT INTO assay_data (primarysequence, reportedresult) VALUES
  ('AUUGAGCAAUAUUACGCGAA', -1.28),
  ('UGUAAGCAAUAUUACGAAUU', -1.64),
  ('UGAAAGCAAUAUUACGGUCC', -0.196);

----------
experiment: self-splicing fitness, log relative to wild type (ln ratio); higher = more splicing; Tetrahymena group I intron in knt gene, E. coli kanamycin selection, DiMSum; sequences stand for … in CUCUCU…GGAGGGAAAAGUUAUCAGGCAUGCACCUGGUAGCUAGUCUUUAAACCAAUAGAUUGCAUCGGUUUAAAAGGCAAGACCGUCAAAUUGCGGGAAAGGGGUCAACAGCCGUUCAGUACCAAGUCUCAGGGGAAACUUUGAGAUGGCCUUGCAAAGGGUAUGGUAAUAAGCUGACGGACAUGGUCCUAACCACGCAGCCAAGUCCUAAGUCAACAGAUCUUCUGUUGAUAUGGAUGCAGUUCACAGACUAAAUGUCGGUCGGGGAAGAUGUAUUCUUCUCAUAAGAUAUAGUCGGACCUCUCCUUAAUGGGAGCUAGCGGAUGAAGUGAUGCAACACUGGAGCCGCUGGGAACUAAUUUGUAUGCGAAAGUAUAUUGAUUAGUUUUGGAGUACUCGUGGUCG; details: 37 °C
measuredMetric: self-splicing fitness (ln)

INSERT INTO measurements (primarysequence, reportedresult) VALUES
  ('UGCGAGCAAUAUUACGUCGU', -3.4),
  ('CUAGAGCAAUAUUACGACCA', -1.15),
  ('GCUUAGCAAUAUUACGAUUC', 0.0621),
  ('UGUGAGCAAUAUUACGCUGU', -2.66),
  ('GGAAAGCAAUAUUACGACGA', 0.0265),
  ('AGGUAGCAAUAUUACGCCCA', -0.0344),
  ('UCAAAGCAAUAUUACGCCCG', -0.884),
  ('GGGCAGCAAUAUUACGAUGC', -1.11),
  ('GAGAAGCAAUAUUACGCCCU', 0.146),
  ('CUGAAGCAAUAUUACGGCUU', -2.84),
  ('CAUCAGCAAUAUUACGGCUC', -1.1),
  ('GAGCAGCAAUAUUACGGGAG', -2.9),
  ('UACAAGCAAUAUUACGUUUA', -0.605),
  ('AGAAAGCAAUAUUACGUAGU', -1.55),
  ('GUGAAGCAAUAUUACGAUAG', -0.681),
  ('UGGAAGCAAUAUUACGGGAC', -3.26),
  ('GGUAAGCAAUAUUACGUUCG', -0.4),
  ('CAGCAGCAAUAUUACGACAC', -2.45),
  ('CUUGAGCAAUAUUACGUCCA', -2.55),
  ('UGGAAGCAAUAUUACGUGAU', -1.67),
  ('CAGUAGCAAUAUUACGAACU', -1.05),
  ('CAACAGCAAUAUUACGUUUU', -2.19),
  ('CUCUAGCAAUAUUACGUAUA', -2.84),
  ('GCUGAGCAAUAUUACGUGUA', -3.02),
  ('CCGUAGCAAUAUUACGGGUU', -1.57),
  ('GGAAAGCAAUAUUACGAGCU', 0.478),
  ('CGUUAGCAAUAUUACGGGGA', -2.28),
  ('UCAUAGCAAUAUUACGCAGC', -1.03),
  ('UAGCAGCAAUAUUACGUUUC', -1.85),
  ('GGCAAGCAAUAUUACGACGA', -0.167),
  ('GAAAAGCAAUAUUACGGCUC', 0.342),
  ('ACUCAGCAAUAUUACGAUGU', -0.811),
  ('GGGAAGCAAUAUUACGACAU', -0.341),
  ('CUUCAGCAAUAUUACGUCCG', -0.437),
  ('CAGAAGCAAUAUUACGUGAC', -2.18),
  ('CGAAAGCAAUAUUACGAAAC', -2.14),
  ('AACAAGCAAUAUUACGGUGC', -2.04),
  ('AACCAGCAAUAUUACGUAGA', -0.514),
  ('ACGGAGCAAUAUUACGACUU', -1.37),
  ('GUGCAGCAAUAUUACGCUAU', -1.14),
  ('CCGGAGCAAUAUUACGGGAA', -2.13),
  ('CCUCAGCAAUAUUACGACGA', -2.86),
  ('GGUUAGCAAUAUUACGCUCU', -0.596),
  ('UAAAAGCAAUAUUACGACCG', 0.499),
  ('CCGCAGCAAUAUUACGAUCC', -2.71),
  ('GUAUAGCAAUAUUACGUCUG', -1.08),
  ('CUGGAGCAAUAUUACGCCUC', -1.07),
  ('GAUAAGCAAUAUUACGAACG', -0.754),
  ('UUUUAGCAAUAUUACGGGGG', -2.25),
  ('ACCCAGCAAUAUUACGGGCU', -0.729),
  ('GCCUAGCAAUAUUACGGGAC', -0.0283),
  ('UAACAGCAAUAUUACGGUCU', -0.783),
  ('GUGGAGCAAUAUUACGUGAG', -2.39),
  ('UGCCAGCAAUAUUACGUGCA', -1.53);
